Kindly supply the reported GI50 values for the records listed here.
# Test system: NCI-60 cancer cell lines
# measurement_protocol: NCI-60 cancer cell line drug screen (GI50, MGM)
# Type: cell-based, human
# measurement_context: Homo sapiens, Renal Cancer, U0-31; read-out: Antiproliferative Activities [GI50 (μM)]
Answers are plain numbers, in µM.

Input: Given the entry CNCCCn1c2c(c3ccc([N+](=O)[O-])cc3c1=O)C(=O)c1cc(OC)cnc1-2 [Compound 10] , report its measured GI50.
Output: 0.03

Input: Given the entry COc1cnc2c(c1)C(=O)c1c-2n(CCCNCCN2CCOCC2)c(=O)c2cc([N+](=O)[O-])ccc12 [Compound 11] , report its measured GI50.
Output: 0.05

Input: Given the entry CN(C)CCCn1c2c(c3cccnc3c1=O)C(=O)c1ccccc1-2 [Compound 20] , report its measured GI50.
Output: 0.57

# per-item lookup of GI50; items listed below
1. CN(C)CCCn1c2c(c3ccc(-c4ccn[nH]4)cc3c1=O)C(=O)c1ccccc1-2 [Compound 30]
2. CNCCCn1c2c(c3ccc(F)cc3c1=O)C(=O)c1cc(OC)cnc1-2 [Compound 6]
3. CN(C)CCCn1c2c(c3ccc(N4CCNCC4)cc3c1=O)C(=O)c1ccccc1-2 [Compound 25]

Output:
1. 0.3
2. 0.13
3. 0.77

---

# Test system: NCI-60 cancer cell lines
# measurement_protocol: NCI-60 cancer cell line drug screen (GI50, MGM)
# Type: cell-based, human
# measurement_context: Homo sapiens, NCI-H460, Non-Small Cell Lung Cancer, NCI-H460; read-out: Antiproliferative Activities [GI50 (μM)]
readout_type: GI50 (µM)
Answers are plain numbers, in µM.

Sample answers from the record:
Input: Report GI50 for "COc1ccc2c(c1)C(=O)c1c-2n(CCCN2CCOCC2)c(=O)c2ccccc12" tested on NCI-60 cancer cell lines.
Output: 0.44

Input: Report GI50 for "CNCCCn1c2c(c3ccc([N+](=O)[O-])cc3c1=O)C(=O)c1cc(OC)cnc1-2" tested on NCI-60 cancer cell lines.
Output: 0.02

Input: Report GI50 for "CNCCCn1c2c(c3ccc(Cl)cc3c1=O)C(=O)c1cc(OC)cnc1-2" tested on NCI-60 cancer cell lines.
Output: 0.05

# per-item lookup of GI50; items listed below
1. COc1cc2c3c(n(CCCN)c(=O)c2cc1OC)-c1cc2c(cc1C3=O)OCO2
2. COc1cc2c(cc1O)-c1c(c3ccc([N+](=O)[O-])cc3c(=O)n1CCCN)C2=O

Output:
1: 0.02; 2: 0.37

---

# assay_system: MycPu28
# measurement_protocol: Competition fluorescence displacement, competitor MycPu28
# Design: species or system human
# measurement_context: competitor binding affinity; 20 nM 3′-TAMRA MycPu22, 20 nM compound, 20° C., pH 7, 100 mM K+
readout_type: Ki
Write the figure, then the unit, nothing else.

Sample answers from the record:
Input: Given the entry "COc1cnc2c(c1)C(=O)c1c-2n(CCCN2CCCC2)c(=O)c2cc([N+](=O)[O-])ccc12" , report its measured Ki.
Output: 11 nM

Input: Given the entry "COc1cnc2c(c1)C(=O)c1c-2n(CCCNC2=NCCS2)c(=O)c2cc([N+](=O)[O-])ccc12" , report its measured Ki.
Output: 7 nM

Input: Given the entry "COc1cnc2c(c1)C(=O)c1c-2n(CCCNC(C)C)c(=O)c2cc(F)ccc12" , report its measured Ki.
Output: 18 nM

# per-item lookup of Ki; items listed below
1. CNCCCn1c2c(c3ccc(F)cc3c1=O)C(=O)c1cc(OC)cnc1-2
2. O=C1c2ccccc2-c2c1c1ccccc1c(=O)n2CCCNCCO

Output:
1: 33 nM; 2: 19 nM
